Measured IC50 values are reported for all entries that follow.
- ASSAY SYSTEM: L2 (Stenotrophomonas maltophilia, UniProt Q9RBQ1)

STRUCTURE SMILES | IC50
O=C(NC1CCNCC1)[C@@H]1CC[C@@H]2CN1C(=O)N2OS(=O)(=O)O | 470 nM

Now let's try a different one.
For L2 (Stenotrophomonas maltophilia, UniProt Q9RBQ1), give IC50 of the listed molecule: NC(=O)[C@@H]1CC[C@@H]2CN1C(=O)N2OS(=O)(=O)O
15 nM

* * *

- ASSAY SYSTEM: UniProt Q9EXV5
OBSERVABLE: Ki (µM)
State just the number; it will be interpreted in µM.

For UniProt Q9EXV5, give Ki of the listed compound: O=C(NC1CCNCC1)[C@@H]1CC[C@@H]2CN1C(=O)N2OS(=O)(=O)O
21

* * *

- ASSAY SYSTEM: CTX-M-15 (Escherichia coli)
OBSERVABLE: pIC50
// returns pIC50 (minus log10 of molar concentration), number only

COMPOUND | pIC50
NC(=O)[C@@H]1CC[C@@H]2CN1C(=O)N2OS(=O)(=O)O [Avibactam, avibactam] | 8.47

Now let's try a different one.
For CTX-M-15 (Escherichia coli), give pIC50 of the listed compound: O=C(NC1CCNCC1)[C@@H]1CC[C@@H]2CN1C(=O)N2OS(=O)(=O)O [Relebactam, relebactam]
6.40
